- experimental target: Human-recombinant-S-Adenosyl-L-Homocysteine Hydrolase (Homo sapiens)
- Sequence (P23526 whole entry): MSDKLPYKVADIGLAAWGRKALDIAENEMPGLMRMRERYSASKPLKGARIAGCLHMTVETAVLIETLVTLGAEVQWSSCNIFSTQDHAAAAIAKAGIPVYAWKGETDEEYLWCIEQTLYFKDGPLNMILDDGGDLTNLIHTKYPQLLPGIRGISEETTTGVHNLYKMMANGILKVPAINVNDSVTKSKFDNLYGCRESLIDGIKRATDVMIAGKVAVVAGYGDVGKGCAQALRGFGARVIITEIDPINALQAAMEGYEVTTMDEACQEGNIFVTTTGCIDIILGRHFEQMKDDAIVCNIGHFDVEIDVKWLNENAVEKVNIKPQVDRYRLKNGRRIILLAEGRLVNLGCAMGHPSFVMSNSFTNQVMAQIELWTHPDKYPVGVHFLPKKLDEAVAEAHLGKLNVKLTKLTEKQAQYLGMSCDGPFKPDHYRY
- procedure text: Measurement of enzyme inhibitory activity (hydrolysis of S-Adenosyl-L-Homocysteine, HPLC)
- condition parameters: S-Adenosyl-L-Homocysteine 10 μM, pH 7.2, 37° C., 15 min
pIC50: −log10 of the molar value. Where a name gives a salt, the structure may show the parent alone.
readout type: pIC50

compound	readout type	measured number
CCNCCNC(=O)CN(CC(=O)N(C)N1Cc2ccccc2C1)c1ccc(-c2ccc(C(N)=O)cn2)cc1C [Example 301, dihydrochloride]	pIC50	7.43
Cc1cc2c(C)noc2cc1N(CC(=O)NCCNC(C)C)CC(=O)N(C)N1Cc2ccccc2C1	pIC50	7.43
CCNCCNC(=O)CN(CC(=O)N(C)N1Cc2ccccc2C1)c1cc2c(C)noc2cc1C	pIC50	7.80
CCNCCNC(=O)CN(CC(=O)N(C)N1Cc2ccccc2C1)c1cc(C(C)=O)ccc1C	pIC50	7.38
CCNCCNC(=O)CN(CC(=O)N(C)N1Cc2cccc(F)c2C1)c1cc2c(cc1C)CCC2=O	pIC50	7.48
CCNCCNC(=O)CN(CC(=O)N(C)C1Cc2ccccc2C1)c1cc(-c2noc(C)n2)ccc1C	pIC50	7.25
CCNCCNC(=O)CN(CC(=O)N(C)N1Cc2ccccc2C1)c1cc(-c2noc(C)n2)ccc1C	pIC50	7.72
CC(=O)c1ccc(C)c(N(CC(=O)NCCNC(C)C)CC(=O)N(C)N2Cc3ccccc3C2)c1	pIC50	7.28
CCNCCNC(=O)CN(CC(=O)N(C)N1Cc2ccccc2C1)c1cc2oc(=O)n(C)c2cc1C	pIC50	7.54
CCNCCNC(=O)CN(CC(=O)N(C)N1Cc2ccccc2C1)c1cc(-c2ncccn2)ccc1C	pIC50	8.00
CCNCCNC(=O)CN(CC(=O)N(C)N1Cc2ccccc2C1)c1cc2cn(C)nc2cc1C [Example 243, hydrochloride]	pIC50	8.15
